Listed next: entries and their corresponding HCRTR1 (Agonist) percent activity.
TARGET OR TEST SYSTEM: HCRTR1 (Homo sapiens, UniProt O43613)
Sequence (O43613 whole entry): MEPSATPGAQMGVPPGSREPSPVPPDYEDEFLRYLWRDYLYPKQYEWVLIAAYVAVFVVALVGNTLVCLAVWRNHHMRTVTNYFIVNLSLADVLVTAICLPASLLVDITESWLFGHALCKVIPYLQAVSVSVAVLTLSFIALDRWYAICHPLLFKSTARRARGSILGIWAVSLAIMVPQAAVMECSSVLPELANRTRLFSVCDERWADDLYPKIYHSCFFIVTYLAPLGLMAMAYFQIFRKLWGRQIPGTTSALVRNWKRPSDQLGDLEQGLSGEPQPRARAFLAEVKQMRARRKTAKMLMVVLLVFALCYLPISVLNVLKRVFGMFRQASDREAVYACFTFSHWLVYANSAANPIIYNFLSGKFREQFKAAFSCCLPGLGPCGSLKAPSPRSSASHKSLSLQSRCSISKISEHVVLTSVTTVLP
METHOD SUMMARY: PathHunter β-Arrestin GPCR agonist assay, HCRTR1
Type: cell-based
Set-up: concentration or dose not given beside the values
SETTINGS: agonist mode; Orexin A as control
MEASURED PROPERTY: HCRTR1 (Agonist) percent activity (%)

• CCCCc1cc(O)c(CC=C(C)CCC=C(C)C)c(O)c1 [CBG-C4, cannabigerol butyl] = 4
• CCCCCc1cc(O)c(C/C=C(\C)CCC=C(C)C)c(O)c1 [CBG, cannabigerol] = 3
• CCCCCc1cc(O)c2c(c1)OC(C)(CCC=C(C)C)C=C2 (centres unmarked) [CBC, cannabichromene] = 0
• C=C(C)[C@@H]1CCC(C)=C[C@H]1c1c(O)cc(CCC)cc1O [CBDV, cannabidivarin] = 0
• CCCCCc1cc(O)c2c(c1)OC1(C)CCC3C1C2C3(C)C (centres unmarked) [CBL, cannabicyclol] = 2
• CCCc1cc(O)c(C/C=C(\C)CCC=C(C)C)c(O)c1C(=O)O [CBGVA, cannabigerovarinic acid] = 0
• CCCc1cc(O)c2c(c1)OC(C)(C)[C@@H]1CCC(C)=C[C@@H]21 [THCV, tetrahydrocannabivarin] = 2
• C=C(C)[C@@H]1CCC(C)=C[C@H]1c1c(O)cc(C)cc1O [CBD-C1, cannabidiorcol] = 3
